Hello, the source for this data is patent US8530461B2, in case you need it.

target: human ACC2 (Homo sapiens); construct: made in house; host or cells: insect cells (baculoviral expression system); assay: ACC2 assay, spectrophotometric 384 well assay (NADH-linked, coupled lactate dehydrogenase/pyruvate kinase); type: biochemical; conditions: ACC2 assay; human ACC2 construct lacking 128 N-terminal amino acids; 25° C., 340 nm, 15 minutes; read-out: IC50
Sequence (O00763 129-2458 limits assumed): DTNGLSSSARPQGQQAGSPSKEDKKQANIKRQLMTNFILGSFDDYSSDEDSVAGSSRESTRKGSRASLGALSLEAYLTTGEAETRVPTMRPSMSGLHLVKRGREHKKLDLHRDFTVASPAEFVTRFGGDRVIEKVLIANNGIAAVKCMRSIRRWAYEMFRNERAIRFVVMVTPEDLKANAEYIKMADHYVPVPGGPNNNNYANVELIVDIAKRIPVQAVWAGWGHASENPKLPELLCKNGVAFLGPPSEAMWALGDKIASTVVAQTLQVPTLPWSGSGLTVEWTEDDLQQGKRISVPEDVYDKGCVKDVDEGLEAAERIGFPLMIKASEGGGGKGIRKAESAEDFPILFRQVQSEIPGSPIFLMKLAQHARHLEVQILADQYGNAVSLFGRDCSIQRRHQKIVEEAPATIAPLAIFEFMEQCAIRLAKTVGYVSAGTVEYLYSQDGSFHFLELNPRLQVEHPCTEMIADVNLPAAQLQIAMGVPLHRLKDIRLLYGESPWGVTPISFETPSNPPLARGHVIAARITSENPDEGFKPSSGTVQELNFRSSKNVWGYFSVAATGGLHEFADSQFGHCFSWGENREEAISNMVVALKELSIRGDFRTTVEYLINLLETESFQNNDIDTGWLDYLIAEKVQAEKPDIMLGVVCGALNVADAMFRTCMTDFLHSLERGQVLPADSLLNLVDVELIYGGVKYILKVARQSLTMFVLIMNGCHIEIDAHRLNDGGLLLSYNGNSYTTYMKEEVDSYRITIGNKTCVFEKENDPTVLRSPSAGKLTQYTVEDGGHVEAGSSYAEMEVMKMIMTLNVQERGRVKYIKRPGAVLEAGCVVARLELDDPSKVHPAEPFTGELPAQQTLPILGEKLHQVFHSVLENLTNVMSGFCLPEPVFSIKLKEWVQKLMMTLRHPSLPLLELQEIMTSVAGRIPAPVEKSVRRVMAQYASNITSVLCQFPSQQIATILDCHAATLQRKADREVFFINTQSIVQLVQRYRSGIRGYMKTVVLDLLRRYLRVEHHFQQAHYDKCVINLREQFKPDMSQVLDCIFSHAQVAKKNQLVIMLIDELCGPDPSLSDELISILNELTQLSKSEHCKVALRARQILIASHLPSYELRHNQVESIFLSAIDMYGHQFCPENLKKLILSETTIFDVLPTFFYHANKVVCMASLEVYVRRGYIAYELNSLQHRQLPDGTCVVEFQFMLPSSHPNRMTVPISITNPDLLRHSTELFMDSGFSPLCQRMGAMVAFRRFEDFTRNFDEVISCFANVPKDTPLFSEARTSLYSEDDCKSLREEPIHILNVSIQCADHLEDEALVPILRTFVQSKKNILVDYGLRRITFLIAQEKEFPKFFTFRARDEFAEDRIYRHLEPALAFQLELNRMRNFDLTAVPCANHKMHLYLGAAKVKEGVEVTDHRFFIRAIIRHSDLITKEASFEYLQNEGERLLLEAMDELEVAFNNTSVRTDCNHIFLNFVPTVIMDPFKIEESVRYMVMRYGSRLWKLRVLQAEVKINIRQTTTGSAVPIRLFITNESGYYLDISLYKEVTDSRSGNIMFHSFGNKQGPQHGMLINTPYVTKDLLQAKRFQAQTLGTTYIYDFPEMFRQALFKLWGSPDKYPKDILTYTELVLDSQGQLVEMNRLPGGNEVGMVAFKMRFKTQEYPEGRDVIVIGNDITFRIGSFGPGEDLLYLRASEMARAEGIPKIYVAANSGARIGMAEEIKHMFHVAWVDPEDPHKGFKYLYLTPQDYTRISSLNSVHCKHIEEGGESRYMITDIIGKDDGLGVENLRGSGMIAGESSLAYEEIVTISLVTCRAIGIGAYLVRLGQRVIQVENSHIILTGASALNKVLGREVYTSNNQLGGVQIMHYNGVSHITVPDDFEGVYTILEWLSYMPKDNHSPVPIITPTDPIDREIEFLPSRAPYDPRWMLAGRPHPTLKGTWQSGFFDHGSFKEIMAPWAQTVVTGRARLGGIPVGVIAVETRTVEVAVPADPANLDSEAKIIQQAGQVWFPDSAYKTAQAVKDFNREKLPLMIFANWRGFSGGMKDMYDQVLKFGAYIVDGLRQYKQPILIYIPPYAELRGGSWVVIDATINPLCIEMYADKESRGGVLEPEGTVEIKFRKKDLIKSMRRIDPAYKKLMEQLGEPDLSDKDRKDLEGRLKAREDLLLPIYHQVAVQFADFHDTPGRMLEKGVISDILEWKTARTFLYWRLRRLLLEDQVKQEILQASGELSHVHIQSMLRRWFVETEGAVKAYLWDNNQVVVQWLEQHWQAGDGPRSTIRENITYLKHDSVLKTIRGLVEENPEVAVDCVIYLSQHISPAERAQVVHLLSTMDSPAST
assayEndpoint: IC50 (µM)

Solved cases (5 shown):
molecule=CCOc1cc(F)c(OC2CN(c3ccc([C@H](C)NC(=O)C4CC4)cc3)C2)c(F)c1 assayendpoint=IC50 resultnumber=0.13
molecule=CCOc1ccc(OC2CN(c3ccc([C@H](C)NC(=O)c4sc(NC(C)=O)nc4-c4ccccc4)cc3)C2)cc1 assayendpoint=IC50 resultnumber=0.55
molecule=CCOc1ccc(OC2CN(c3ccc([C@H](C)NC(=O)c4ocnc4C)cc3)C2)cc1 assayendpoint=IC50 resultnumber=0.4
molecule=CC(=O)N[C@@H](C)c1ccc(N2CC(Oc3cccc(C)n3)C2)cc1 assayendpoint=IC50 resultnumber=0.53
molecule=C#CC(C)(C)C(=O)N[C@@H](C)c1ccc(N2CC(Oc3ccc(OCC)cc3)C2)cc1 assayendpoint=IC50 resultnumber=0.93

I. CCOc1ccc(OC2CN(c3ccc([C@H](C)NC(=O)Cc4ccccn4)cc3)C2)cc1
II. CCOc1ccc(OC2CN(c3ccc([C@H](C)NC(=O)C4CC4C)cc3)C2)cc1 (stereo partly shown)
III. C[C@H](NC(=O)OC(C)(C)C)c1ccc(N2CC(Oc3ccc(OCC4CC4)cc3)C2)cc1
IV. C[C@H](NC(=O)C1CC1)c1ccc(N2CC(Oc3ccc(OC(F)(F)F)cc3)C2)cc1
V. CCOc1c(F)cc(OC2CN(c3ccc([C@H](C)NC(C)=O)cc3)C2)cc1F
Ascending by IC50, please: list the molecules accordingly. Write out the labels following the order that was asked for.
V, II, III, I, IV
(V: 0.3 µM, II: 0.46 µM, III: 1.37 µM, I: 2.33 µM, IV: 4.4 µM)
